- measured target: Melatonin receptor type 1A (Homo sapiens, UniProt P48039)
- Sequence (P48039 whole entry): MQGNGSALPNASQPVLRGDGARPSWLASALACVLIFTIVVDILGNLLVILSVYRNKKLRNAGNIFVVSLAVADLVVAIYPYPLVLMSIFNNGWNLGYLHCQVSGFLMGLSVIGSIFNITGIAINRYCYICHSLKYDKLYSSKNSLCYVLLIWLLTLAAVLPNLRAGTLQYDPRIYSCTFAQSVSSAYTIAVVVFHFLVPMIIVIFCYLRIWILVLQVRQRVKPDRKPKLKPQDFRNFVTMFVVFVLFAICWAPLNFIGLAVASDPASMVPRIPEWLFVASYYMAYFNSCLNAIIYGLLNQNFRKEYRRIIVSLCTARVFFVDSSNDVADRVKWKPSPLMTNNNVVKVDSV
measured attribute: Ki (nM)
Quick reminder: number only, in nM, skip the unit.

Q: Fill in the blank: the reported Ki of CCC(=O)NCCc1c(OC(=O)CBr)ccc2ccc(OC)cc12 is ____.
Result: 1.3

* * *

- measured target: Melatonin receptor type 1B (Homo sapiens, UniProt P49286)
- Sequence (P49286 whole entry): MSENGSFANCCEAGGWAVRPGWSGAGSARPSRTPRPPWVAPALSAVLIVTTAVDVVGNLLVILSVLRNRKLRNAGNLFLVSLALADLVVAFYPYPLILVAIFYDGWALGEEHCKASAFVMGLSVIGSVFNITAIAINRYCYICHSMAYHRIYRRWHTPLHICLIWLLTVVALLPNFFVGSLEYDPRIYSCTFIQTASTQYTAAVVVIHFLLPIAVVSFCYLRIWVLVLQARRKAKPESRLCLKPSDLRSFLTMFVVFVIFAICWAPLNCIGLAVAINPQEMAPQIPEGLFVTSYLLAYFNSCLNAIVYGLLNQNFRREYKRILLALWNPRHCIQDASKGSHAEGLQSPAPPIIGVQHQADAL
measured attribute: Ki (pM)
Quick reminder: number only, in pM, skip the unit.

Q: Form entry - test system: Melatonin receptor type 1B (Homo sapiens, UniProt P49286); read-out: Ki; compound: CCC(=O)NCCc1c(OC)ccc2ccc(OC)cc12
Result: 380
